Tested on: Mus musculus
test: Toxicity in ip dosed BDF1 mouse
Type: organism-based
measurement.context: in vivo
Mark 1 (yes) only for LD10 values smaller than 40 mg/kg; exact matches and larger values are 0 (no).

Worked set:
[Q] Does the reported LD10 of the following compound sit strictly below 40 mg/kg? `COC(=O)[C@H]1CC[C@H](NC(=O)N(CCCl)N=O)CC1`
[A] 1 (yes)

[Q] In plain terms, does `CC(=O)OC[C@H]1CC[C@H](NC(=O)N(CCF)N=O)CC1` come in under 40 mg/kg for LD10?
[A] 0 (no)

[Q] API: query returns whether the compound falls strictly under 40 mg/kg in LD10. Query: `O=NN(CCCl)C(=O)N[C@H]1CC[C@@H](CC(=O)O)CC1`
[A] 0 (no)

More entries:
[Q] Determine whether this compound shows LD10 lower than 40 mg/kg (ties excluded): O=NN(CCCl)C(=O)N[C@H]1CCCC[C@@H]1Cl (relative stereo)
[A] 0 (no)

[Q] Below 40 mg/kg on LD10? Entry `CCOC(=O)[C@H]1CC[C@H](NC(=O)N(CCCl)N=O)CC1`
[A] 1 (yes)

[Q] Quick check: LD10 of `O=NN(CCCl)C(=O)N[C@H]1CC[C@H](CCl)CC1` under 40 mg/kg?
[A] 0 (no)

[Q] Here's an entry: `CO[C@H]1CC[C@@H](NC(=O)N(CCCl)N=O)CC1` . Is its LD10 below 40 mg/kg?
[A] 1 (yes)

[Q] # check: LD10 < 40 mg/kg for C[C@H]1CCC[C@H](NC(=O)N(CCCl)N=O)C1 (relative stereo)
[A] 0 (no)

[Q] Problem: For the compound `O=NN(CCCl)C(=O)N[C@H]1CC[C@@H](O)CC1` , is LD10 under 40 mg/kg?
[A] 0 (no)
